- Tested on: Streptococcus sobrinus ATCC 27351
- Protocol Summary: Acid formation by dental caries-inducing microorganisms
- Condition Parameters: 60 min; living wet cells, 0.02M saccharide, Stephen buffer pH 7.0, 37° C.
Experimental Readout: pH at each fermentation time (min): 60
The answer should be a number; do not append a unit.

Challenge: API: value(readout= pH at each fermentation time (min): 60, system= Streptococcus sobrinus ATCC 27351, query= OC[C@H]1O[C@H](O[C@H]2O[C@H](CO)[C@@H](O)[C@H](O)[C@H]2O)[C@H](O)[C@@H](O)[C@@H]1O [Trehalose, trehalose, reference compound] )
Response given: 4.3

Challenge: API: value(readout= pH at each fermentation time (min): 60, system= Streptococcus sobrinus ATCC 27351, query= OC[C@H]1O[C@H](OC[C@H]2OC(O)[C@H](O)[C@@H](O)[C@@H]2O)[C@H](O)[C@@H](O)[C@@H]1O (stereo partly drawn) [Isomaltose, isomaltose, reference compound] )
Response given: 6.8

Challenge: API: value(readout= pH at each fermentation time (min): 60, system= Streptococcus sobrinus ATCC 27351, query= OC[C@H]1O[C@H](OC[C@H]2O[C@H](OC[C@H]3O[C@H](O[C@H]4O[C@H](CO)[C@@H](O)[C@H](O)[C@H]4O)[C@H](O)[C@@H](O)[C@@H]3O)[C@H](O)[C@@H](O)[C@@H]2O)[C@H](O)[C@@H](O)[C@@H]1O [α-Isomaltotriosyl α-glucoside] )
Response given: 6.9

Challenge: API: value(readout= pH at each fermentation time (min): 60, system= Streptococcus sobrinus ATCC 27351, query= OC[C@H]1O[C@H](OC[C@H]2O[C@H](O[C@H]3O[C@H](CO[C@H]4O[C@H](CO)[C@@H](O)[C@H](O)[C@H]4O)[C@@H](O)[C@H](O)[C@H]3O)[C@H](O)[C@@H](O)[C@@H]2O)[C@H](O)[C@@H](O)[C@@H]1O [α-Isomaltosyl α-isomaltoside] )
Response given: 6.9

Challenge: API: value(readout= pH at each fermentation time (min): 60, system= Streptococcus sobrinus ATCC 27351, query= OC[C@H]1O[C@H](OC[C@H]2O[C@H](O[C@H]3O[C@H](CO)[C@@H](O)[C@H](O)[C@H]3O)[C@H](O)[C@@H](O)[C@@H]2O)[C@H](O)[C@@H](O)[C@@H]1O )
Response given: 6.9

Challenge: API: value(readout= pH at each fermentation time (min): 60, system= Streptococcus sobrinus ATCC 27351, query= OC[C@H]1O[C@@](CO)(O[C@H]2O[C@H](CO)[C@@H](O)[C@H](O)[C@H]2O)[C@@H](O)[C@@H]1O [Sucrose, sucrose, reference compound] )
Response given: 4.0

* * *

So I've got a bunch of compounds here, and I need their Yield of non-adsorbed glucans values.
- System: crude glucosyltransferase specimen derived from Streptococcus sobrinus strain (ATCC 27351)
- Protocol Summary: Inhibition of insoluble glucan formation by glucosyltransferase from dental caries-inducing microorganism
- Format: biochemical
- Condition Parameters: sucrose plus test saccharide (one ml of one w/v % each), pH 6.8, 37° C., 16 hours; sucrose alone 923
Write down the numeric answer in µg/mL and omit the unit.

Challenge: Requested read-out: Yield of non-adsorbed glucans. Entry: OC[C@H]1O[C@H](OC[C@H]2O[C@H](OC[C@H]3O[C@H](O[C@H]4O[C@H](CO)[C@@H](O)[C@H](O)[C@H]4O)[C@H](O)[C@@H](O)[C@@H]3O)[C@H](O)[C@@H](O)[C@@H]2O)[C@H](O)[C@@H](O)[C@@H]1O [α-Isomaltotriosyl α-glucoside]
Response given: 269

Challenge: Requested read-out: Yield of non-adsorbed glucans. Entry: OC[C@H]1O[C@H](OC[C@H]2O[C@H](O[C@H]3O[C@H](CO[C@H]4O[C@H](CO)[C@@H](O)[C@H](O)[C@H]4O)[C@@H](O)[C@H](O)[C@H]3O)[C@H](O)[C@@H](O)[C@@H]2O)[C@H](O)[C@@H](O)[C@@H]1O [α-Isomaltosyl α-isomaltoside]
Response given: 298

Challenge: Requested read-out: Yield of non-adsorbed glucans. Entry: OC[C@H]1O[C@H](OC[C@H]2O[C@H](O[C@H]3O[C@H](CO)[C@@H](O)[C@H](O)[C@H]3O)[C@H](O)[C@@H](O)[C@@H]2O)[C@H](O)[C@@H](O)[C@@H]1O
Response given: 118

* * *

- Tested on: crude glucosyltransferase specimen derived from Streptococcus sobrinus strain (ATCC 27351)
- Protocol Summary: Inhibition of insoluble glucan formation by glucosyltransferase from dental caries-inducing microorganism
- Format: biochemical
- Condition Parameters: sucrose plus test saccharide (one ml of one w/v % each), pH 6.8, 37° C., 16 hours; sucrose alone 1,160
So I've got a bunch of compounds here, and I need their Yield of adsorbed glucans values.
Write down the numeric answer in µg/mL and omit the unit.

Challenge: Requested read-out: Yield of adsorbed glucans. Entry: OC[C@H]1O[C@H](OC[C@H]2O[C@H](O[C@H]3O[C@H](CO[C@H]4O[C@H](CO)[C@@H](O)[C@H](O)[C@H]4O)[C@@H](O)[C@H](O)[C@H]3O)[C@H](O)[C@@H](O)[C@@H]2O)[C@H](O)[C@@H](O)[C@@H]1O [α-Isomaltosyl α-isomaltoside]
Response given: 72

Challenge: Requested read-out: Yield of adsorbed glucans. Entry: OC[C@H]1O[C@H](OC[C@H]2O[C@H](OC[C@H]3O[C@H](O[C@H]4O[C@H](CO)[C@@H](O)[C@H](O)[C@H]4O)[C@H](O)[C@@H](O)[C@@H]3O)[C@H](O)[C@@H](O)[C@@H]2O)[C@H](O)[C@@H](O)[C@@H]1O [α-Isomaltotriosyl α-glucoside]
Response given: 66

Challenge: Requested read-out: Yield of adsorbed glucans. Entry: OC[C@H]1O[C@H](OC[C@H]2O[C@H](O[C@H]3O[C@H](CO)[C@@H](O)[C@H](O)[C@H]3O)[C@H](O)[C@@H](O)[C@@H]2O)[C@H](O)[C@@H](O)[C@@H]1O
Response given: 30

Challenge: Requested read-out: Yield of adsorbed glucans. Entry: OC[C@H]1O[C@H](O[C@H]2O[C@H](CO)[C@@H](O)[C@H](O)[C@H]2O)[C@H](O)[C@@H](O)[C@@H]1O [Trehalose, trehalose, reference compound]
Response given: 772

* * *

So I've got a bunch of compounds here, and I need their pH at each fermentation time (min): 15 values.
- Tested on: Streptococcus sobrinus ATCC 27351
- Protocol Summary: Acid formation by dental caries-inducing microorganisms
- Condition Parameters: 15 min; living wet cells, 0.02M saccharide, Stephen buffer pH 7.0, 37° C.
The answer should be a number; do not append a unit.

Challenge: Requested read-out: pH at each fermentation time (min): 15. Entry: OC[C@H]1O[C@H](OC[C@H]2OC(O)[C@H](O)[C@@H](O)[C@@H]2O)[C@H](O)[C@@H](O)[C@@H]1O (stereo partly drawn) [Isomaltose, isomaltose, reference compound]
Response given: 6.9

Challenge: Requested read-out: pH at each fermentation time (min): 15. Entry: OC[C@H]1O[C@H](OC[C@H]2O[C@H](O[C@H]3O[C@H](CO[C@H]4O[C@H](CO)[C@@H](O)[C@H](O)[C@H]4O)[C@@H](O)[C@H](O)[C@H]3O)[C@H](O)[C@@H](O)[C@@H]2O)[C@H](O)[C@@H](O)[C@@H]1O [α-Isomaltosyl α-isomaltoside]
Response given: 6.9

Challenge: Requested read-out: pH at each fermentation time (min): 15. Entry: OC[C@H]1O[C@H](OC[C@H]2O[C@H](O[C@H]3O[C@H](CO)[C@@H](O)[C@H](O)[C@H]3O)[C@H](O)[C@@H](O)[C@@H]2O)[C@H](O)[C@@H](O)[C@@H]1O
Response given: 6.9

Challenge: Requested read-out: pH at each fermentation time (min): 15. Entry: OC[C@H]1O[C@@](CO)(O[C@H]2O[C@H](CO)[C@@H](O)[C@H](O)[C@H]2O)[C@@H](O)[C@@H]1O [Sucrose, sucrose, reference compound]
Response given: 4.1

Challenge: Requested read-out: pH at each fermentation time (min): 15. Entry: OC[C@H]1O[C@H](OC[C@H]2O[C@H](OC[C@H]3O[C@H](O[C@H]4O[C@H](CO)[C@@H](O)[C@H](O)[C@H]4O)[C@H](O)[C@@H](O)[C@@H]3O)[C@H](O)[C@@H](O)[C@@H]2O)[C@H](O)[C@@H](O)[C@@H]1O [α-Isomaltotriosyl α-glucoside]
Response given: 6.9

Challenge: Requested read-out: pH at each fermentation time (min): 15. Entry: OC[C@H]1O[C@H](O[C@H]2O[C@H](CO)[C@@H](O)[C@H](O)[C@H]2O)[C@H](O)[C@@H](O)[C@@H]1O [Trehalose, trehalose, reference compound]
Response given: 5.3
